target: CDK13 (Homo sapiens, UniProt Q14004); experiment: CDK13 kinase inhibitory activity assay (33P-ATP filter binding); type: biochemical
Sequence (Q14004 whole entry, species assumed): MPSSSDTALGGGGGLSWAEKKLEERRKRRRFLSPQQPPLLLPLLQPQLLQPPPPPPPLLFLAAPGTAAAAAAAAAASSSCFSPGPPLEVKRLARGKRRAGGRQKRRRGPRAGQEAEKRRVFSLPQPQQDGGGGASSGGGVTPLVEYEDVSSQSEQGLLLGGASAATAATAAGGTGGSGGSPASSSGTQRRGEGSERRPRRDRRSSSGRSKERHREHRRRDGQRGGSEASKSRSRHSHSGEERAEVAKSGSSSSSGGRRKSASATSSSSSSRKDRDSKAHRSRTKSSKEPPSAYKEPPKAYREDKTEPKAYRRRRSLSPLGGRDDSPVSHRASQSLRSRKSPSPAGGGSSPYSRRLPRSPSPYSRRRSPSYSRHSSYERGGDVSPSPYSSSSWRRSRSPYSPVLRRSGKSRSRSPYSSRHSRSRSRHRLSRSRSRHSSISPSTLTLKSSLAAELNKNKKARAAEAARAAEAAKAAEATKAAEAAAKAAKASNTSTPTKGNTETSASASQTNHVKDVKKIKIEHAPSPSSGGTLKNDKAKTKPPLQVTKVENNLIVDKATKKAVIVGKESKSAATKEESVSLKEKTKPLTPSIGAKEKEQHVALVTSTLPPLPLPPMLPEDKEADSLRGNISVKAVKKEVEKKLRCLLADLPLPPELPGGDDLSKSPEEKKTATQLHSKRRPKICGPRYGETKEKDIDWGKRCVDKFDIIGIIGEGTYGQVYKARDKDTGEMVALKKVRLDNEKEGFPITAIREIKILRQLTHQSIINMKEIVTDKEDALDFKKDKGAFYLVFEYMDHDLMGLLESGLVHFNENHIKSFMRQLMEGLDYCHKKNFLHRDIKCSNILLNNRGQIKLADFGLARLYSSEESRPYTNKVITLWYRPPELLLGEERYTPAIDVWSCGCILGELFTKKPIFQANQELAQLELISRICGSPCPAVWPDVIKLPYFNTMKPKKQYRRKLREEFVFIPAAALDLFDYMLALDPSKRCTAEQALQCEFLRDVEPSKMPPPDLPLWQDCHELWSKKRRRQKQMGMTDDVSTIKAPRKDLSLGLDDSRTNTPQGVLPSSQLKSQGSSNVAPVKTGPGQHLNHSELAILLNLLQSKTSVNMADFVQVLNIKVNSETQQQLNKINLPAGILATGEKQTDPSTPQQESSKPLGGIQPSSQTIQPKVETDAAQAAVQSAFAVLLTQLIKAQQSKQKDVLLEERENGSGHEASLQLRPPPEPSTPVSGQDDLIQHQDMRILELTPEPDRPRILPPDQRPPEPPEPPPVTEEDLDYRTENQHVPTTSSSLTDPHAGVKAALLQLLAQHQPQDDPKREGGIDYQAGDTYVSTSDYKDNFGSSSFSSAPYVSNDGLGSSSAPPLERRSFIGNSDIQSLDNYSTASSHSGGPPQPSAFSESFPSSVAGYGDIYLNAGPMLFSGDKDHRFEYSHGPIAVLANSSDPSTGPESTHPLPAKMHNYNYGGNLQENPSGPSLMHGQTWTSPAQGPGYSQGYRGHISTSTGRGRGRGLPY
Sequence (O75909 whole entry partner, species assumed): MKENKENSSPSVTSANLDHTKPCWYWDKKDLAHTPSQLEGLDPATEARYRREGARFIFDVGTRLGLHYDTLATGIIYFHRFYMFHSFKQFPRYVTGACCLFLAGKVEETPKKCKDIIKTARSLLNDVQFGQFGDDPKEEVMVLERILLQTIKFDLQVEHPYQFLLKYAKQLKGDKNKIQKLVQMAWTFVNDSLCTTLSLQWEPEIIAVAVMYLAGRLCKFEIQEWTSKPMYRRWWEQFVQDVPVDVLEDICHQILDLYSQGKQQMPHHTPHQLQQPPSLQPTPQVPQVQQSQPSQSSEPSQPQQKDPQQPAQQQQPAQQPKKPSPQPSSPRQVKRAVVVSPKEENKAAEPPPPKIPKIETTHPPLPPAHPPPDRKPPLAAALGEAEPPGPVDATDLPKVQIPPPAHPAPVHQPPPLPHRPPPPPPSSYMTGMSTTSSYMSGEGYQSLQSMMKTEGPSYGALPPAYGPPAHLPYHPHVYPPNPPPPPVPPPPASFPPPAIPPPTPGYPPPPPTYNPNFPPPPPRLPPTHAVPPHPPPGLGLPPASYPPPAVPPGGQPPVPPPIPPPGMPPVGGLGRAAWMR
Measurement Name: IC50

Line Notation | IC50
NC(=O)N1CCN(c2cc(NCc3nc4ccc(F)c(F)c4[nH]3)c3ncc(C(F)(F)F)n3n2)CC1 | < 100 nM
O[C@@H]1CCN(c2cc(NCc3nc4cc(Cl)c(Cl)cc4[nH]3)c3ncc(C(F)(F)F)n3n2)C1 | 100 to 500 nM
OCC1CN(c2cc(NCc3nc4cc(Cl)c(Cl)cc4[nH]3)c3ncc(C(F)(F)F)n3n2)C1 | < 100 nM
Fc1ccc2nc(CNc3cc(N4CCOCC4)nn4c(CC(F)(F)F)cnc34)[nH]c2c1F | 100 to 500 nM

Now examine the next entry.
Identify the reported IC50 for the following entry. C#Cc1cnc2c(NCc3nc4ccc(F)c(F)c4[nH]3)cc(N3CCOCC3)nn12 < 100 nM

----------
test system: MDA-MB-231 breast cancer cells; test: Proliferation inhibitory activity assay against MDA-MB-231 breast cancer cells; type: cell-based; conditions: Homo sapiens, 72 hours, CellTiter Glo, relative IC50
Measurement Name: IC50

Line Notation | IC50
Nc1ncc(-c2cc(NCc3nc4ccc(F)c(F)c4[nH]3)c3ncc(C#CC4CC4)n3n2)cn1 | > 500 nM
Cc1cc2[nH]c(CNc3cc(N4CCOCC4)nn4c(C(F)(F)F)cnc34)nc2cc1C(F)(F)F | ≤ 50 nM

Now let's try a different one.
Would you please give the reported IC50 of NC(=O)N1CCN(c2cc(NCc3nc4ccc(F)c(F)c4[nH]3)c3ncc(C(F)(F)F)n3n2)CC1 with MDA-MB-231 breast cancer cells? 50 to 500 nM

----------
target: CDK13 (Homo sapiens); experiment: CDK13 kinase inhibitory activity assay (33P-ATP filter binding); format: biochemical; details: kinase reaction 120 minutes, 33P-gamma-ATP; read-out: CDK13 IC50
pIC50: −log10 of the molar value.
Listed here are compounds together with their documented pIC50.

As a guide, the following entries are already answered.
Line Notation | pIC50
Fc1ccc2nc(CNc3cc(N4CCOCC4)nn4c(C(F)(F)F)cnc34)[nH]c2c1F | > 7.00
OC1(C2CN(c3cc(NCc4nc5cc(Cl)c(Cl)cc5[nH]4)c4ncc(C(F)(F)F)n4n3)C2)CC1 | 6.30 to 7.00
Cc1cnc2c(NCc3nc4ccc(F)c(F)c4[nH]3)cc(N3CCOCC3)nn12 | 6.30 to 7.00

Give reported pIC50 value for NC(=O)C1CN(c2cc(NCc3nc4cc(Cl)c(Cl)cc4[nH]3)c3ncc(C(F)(F)F)n3n2)C1 > 7.00

Read off the recorded pIC50 for CN1C2CCC1CN(c1cc(NCc3nc4cc(Cl)c(Cl)cc4[nH]3)c3ncc(C(F)(F)F)n3n1)C2 > 7.00

Let me know recorded pIC50 for FC(F)(F)c1cnc2c(NCc3nc4cc(Cl)c(Cl)cc4s3)cc(N3CCOCC3)nn12 , thanks. < 6.30

Name the recorded pIC50 of the item OC1CN(c2cc(NCc3nc4ccc(F)c(F)c4[nH]3)c3ncc(C(F)(F)F)n3n2)C1 in your answer. > 7.00

----------
target: CDK12 (Homo sapiens, UniProt Q9NYV4); assay: CDK12 kinase inhibitory activity assay (33P-ATP filter binding); type: biochemical; conditions: kinase reaction 120 minutes, 33P-gamma-ATP; read-out: CDK12 IC50
Sequence (Q9NYV4 whole entry, species assumed, one chain of several): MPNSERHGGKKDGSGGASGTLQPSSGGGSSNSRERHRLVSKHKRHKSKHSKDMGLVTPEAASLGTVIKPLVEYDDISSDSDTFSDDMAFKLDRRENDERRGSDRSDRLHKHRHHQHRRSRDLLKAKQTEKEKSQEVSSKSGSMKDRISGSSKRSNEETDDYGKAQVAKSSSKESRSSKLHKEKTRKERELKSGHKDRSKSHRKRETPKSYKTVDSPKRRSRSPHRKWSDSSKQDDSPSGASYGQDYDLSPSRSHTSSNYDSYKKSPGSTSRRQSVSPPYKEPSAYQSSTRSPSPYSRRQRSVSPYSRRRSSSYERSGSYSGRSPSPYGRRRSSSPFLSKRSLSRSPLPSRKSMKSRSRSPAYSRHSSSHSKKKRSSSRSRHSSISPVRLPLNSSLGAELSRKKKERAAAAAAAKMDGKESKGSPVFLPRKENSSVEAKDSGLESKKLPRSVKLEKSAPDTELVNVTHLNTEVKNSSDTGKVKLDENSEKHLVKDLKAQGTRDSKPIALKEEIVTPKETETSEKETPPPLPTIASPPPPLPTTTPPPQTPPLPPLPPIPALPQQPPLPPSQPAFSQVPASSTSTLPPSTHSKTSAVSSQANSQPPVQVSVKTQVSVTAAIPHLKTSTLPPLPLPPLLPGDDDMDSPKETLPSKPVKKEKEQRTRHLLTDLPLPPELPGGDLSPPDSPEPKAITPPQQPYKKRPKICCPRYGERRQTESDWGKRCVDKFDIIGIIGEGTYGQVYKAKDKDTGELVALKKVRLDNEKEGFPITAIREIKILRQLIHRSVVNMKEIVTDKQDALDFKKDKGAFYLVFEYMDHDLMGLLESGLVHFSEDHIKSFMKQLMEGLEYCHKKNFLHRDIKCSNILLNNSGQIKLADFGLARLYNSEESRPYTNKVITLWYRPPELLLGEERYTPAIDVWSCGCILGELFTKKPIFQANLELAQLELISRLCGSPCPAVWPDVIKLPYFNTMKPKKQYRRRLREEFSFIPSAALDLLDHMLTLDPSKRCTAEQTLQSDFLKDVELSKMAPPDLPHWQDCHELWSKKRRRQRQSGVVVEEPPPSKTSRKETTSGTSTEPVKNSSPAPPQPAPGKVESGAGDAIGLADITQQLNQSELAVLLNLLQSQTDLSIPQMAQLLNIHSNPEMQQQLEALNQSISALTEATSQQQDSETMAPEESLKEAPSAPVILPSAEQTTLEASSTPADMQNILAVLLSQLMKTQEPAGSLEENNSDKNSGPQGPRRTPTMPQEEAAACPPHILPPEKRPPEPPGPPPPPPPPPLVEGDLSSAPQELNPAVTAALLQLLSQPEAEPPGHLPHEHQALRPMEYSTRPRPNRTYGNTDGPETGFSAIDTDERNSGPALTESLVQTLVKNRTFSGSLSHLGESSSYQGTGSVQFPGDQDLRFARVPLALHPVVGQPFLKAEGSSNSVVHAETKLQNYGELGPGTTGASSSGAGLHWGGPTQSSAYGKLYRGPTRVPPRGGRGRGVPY
Measurement Name: IC50

Completed entries (count: 5):
Compound | Result
FC(F)(F)c1cnc2c(NCc3nc4cc(Cl)c(Cl)cc4[nH]3)cc(N3CCOCC3)nn12 | 100 to 500 nM
OCC1CN(c2cc(NCc3nc4cc(Cl)c(Cl)cc4[nH]3)c3ncc(C(F)(F)F)n3n2)C1 | 100 to 500 nM
OC1CC2CCC(C1)N2c1cc(NCc2nc3cc(Cl)c(Cl)cc3[nH]2)c2ncc(C(F)(F)F)n2n1 (stereo not drawn) | 100 to 500 nM
CC(C)c1cnc2c(NCc3nc4ccc(F)c(F)c4[nH]3)cc(N3CCOCC3)nn12 | > 500 nM
Nc1ncc(-c2cc(NCc3nc4ccc(F)c(F)c4[nH]3)c3ncc(C(F)(F)F)n3n2)cn1 | < 100 nM

Now turn to the next compound.
For the compound Cc1cc2nc(CNc3cc(N4CCOCC4)nn4c(C(F)(F)F)cnc34)[nH]c2cc1C , give its measured IC50 value. < 100 nM

----------
Quick reference for pIC50 among some compounds
molecular target: CDK12 (Homo sapiens); experiment: Cellular CDK12 inhibitory activity assay (Ser2 phosphorylation of RNA polymerase II subunit B1 CTD in MDA-MB-231 cells); type: cell-based; set-up: using MDA-MB-231 breast cancer cells; endogenous in cells; host or cells: MDA-MB-231; conditions: MDA-MB-231 cells, 6 hours treatment; read-out: pRpbl CTD S2 IC50
pIC50: −log10 of the molar value.

Compound | pIC50
FC(F)(F)c1cnc2c(NCc3cc4ccccn4n3)cc(N3CCOCC3)nn12 | 5.52 to 6.52
N#CC1CCN(c2cc(NCc3nc4ccc(F)c(F)c4[nH]3)c3ncc(C(F)(F)F)n3n2)CC1 | 5.52 to 6.52
CC1(O)CN(c2cc(NCc3nc4cc(Cl)c(Cl)cc4[nH]3)c3ncc(C(F)(F)F)n3n2)C1 | > 6.52

Please report the measured pIC50 for O=C(O)C1CN(c2cc(NCc3nc4cc(Cl)c(Cl)cc4[nH]3)c3ncc(C(F)(F)F)n3n2)C1 < 5.52

Fill in reported pIC50 for this entry: Cc1cc2[nH]c(CNc3cc(N4CCOCC4)nn4c(C(F)(F)F)cnc34)nc2cc1Cl > 6.52

Using known records, supply pIC50 for NC(=O)N1CCN(c2cc(NCc3nc4ccc(F)c(F)c4[nH]3)c3ncc(C(F)(F)F)n3n2)CC1 5.52 to 6.52

# return recorded pIC50 for input C#Cc1cnc2c(NCc3nc4ccc(F)c(F)c4[nH]3)cc(N3CCOCC3)nn12 5.52 to 6.52

Report measured pIC50; entry is Fc1ccc2nc(CNc3cc(N4CC5CCC(C4)O5)nn4c(C(F)(F)F)cnc34)[nH]c2c1F > 6.52

Name the recorded pIC50 of the compound listed here: NC(=O)C1CCN(c2cc(NCc3nc4cc(Cl)c(Cl)cc4[nH]3)c3ncc(C(F)(F)F)n3n2)CC1 > 6.52

Fill in pIC50 for record FC(F)(F)c1cnc2c(NCc3cn4cccnc4n3)cc(N3CCOCC3)nn12 5.52 to 6.52

Hello, please tell me recorded pIC50 for this one: FC(F)(F)c1cnc2c(NCc3nc4cc(Cl)c(Cl)cc4o3)cc(N3CCOCC3)nn12 5.52 to 6.52

Note down pIC50 recorded for CC(=O)N1CCN(c2cc(NCc3nc4cc(Cl)c(Cl)cc4[nH]3)c3ncc(C(F)(F)F)n3n2)CC1 > 6.52

Find the measured pIC50 of N[C@@H]1CCN(c2cc(NCc3nc4ccc(F)c(F)c4[nH]3)c3ncc(C(F)(F)F)n3n2)C1 and report it. > 6.52

Tell us which pIC50 value is on record for FC(F)(F)c1cnc2c(NCc3nc4cc(Cl)c(Cl)cc4[nH]3)cc(N3C4CCC3CNC4)nn12 > 6.52

Given CC#Cc1cnc2c(NCc3nc4ccc(F)c(F)c4[nH]3)cc(-c3cnc(N)nc3)nn12 , respond with its pIC50. 5.52 to 6.52

State, in one line, measured pIC50 of COc1cccc2[nH]c(CNc3cc(N4CCOCC4)nn4c(C(F)(F)F)cnc34)nc12 5.52 to 6.52

Output measured pIC50 for this item: FC(F)(F)c1ccc2[nH]c(CNc3cc(N4CCOCC4)nn4c(C(F)(F)F)cnc34)nc2c1 5.52 to 6.52

Annotate the compound Cc1cnc2c(NCc3nc4ccc(F)c(F)c4[nH]3)cc(N3CCOCC3)nn12 with its measured pIC50. < 5.52

Dear colleague, please send me the reported pIC50 for FC(F)(F)c1cnc2c(NCc3cc4ncccc4[nH]3)cc(N3CCOCC3)nn12 when you can. 5.52 to 6.52

Given the compound FC(F)(F)c1cnc2c(NCc3cc4cccnc4[nH]3)cc(N3CCOCC3)nn12 , write its reported pIC50. 5.52 to 6.52

----------
target: CDK13 (Homo sapiens, UniProt Q14004); assay: CDK13 kinase inhibitory activity assay (33P-ATP filter binding); type: biochemical; settings: kinase reaction 120 minutes, 33P-gamma-ATP; read-out: CDK13 IC50
pIC50: −log10 of the molar value.
# pIC50 values compiled below

Known pIC50 results, listed for orientation:
Line Notation | Measurement Name | Result
FC(F)(F)c1cnc2c(NCc3nc4cc(Cl)c(Cl)cc4[nH]3)cc(N3CC4CC(C4)C3)nn12 | pIC50 | 6.30 to 7.00
FC(F)(F)c1cnc2c(NCc3nc4cc(Cl)c(Cl)cc4[nH]3)cc(N3CCOCC3)nn12 | pIC50 | > 7.00
N#CC1CCN(c2cc(NCc3nc4cc(Cl)c(Cl)cc4[nH]3)c3ncc(C(F)(F)F)n3n2)CC1 | pIC50 | 6.30 to 7.00

For the compound CC#Cc1cnc2c(NCc3nc4ccc(F)c(F)c4[nH]3)cc(-c3cnc(N)nc3)nn12 , give its measured pIC50 value. 6.30 to 7.00

Provide one value: measured pIC50 of CN1C2CC1CN(c1cc(NCc3nc4cc(Cl)c(Cl)cc4[nH]3)c3ncc(C(F)(F)F)n3n1)C2 > 7.00

Tell me its pIC50 given FC(F)(F)c1cnc2c(NCc3nc4cc(Cl)c(Cl)cc4[nH]3)cc(N3C4CNCC3C4)nn12 as the entry. 6.30 to 7.00

Note pIC50 for the compound shown: CN1CCN(c2cc(NCc3nc4cc(Cl)c(Cl)cc4[nH]3)c3ncc(C(F)(F)F)n3n2)CC1 > 7.00
